The origin of these recorded values is patent US20150368338A1.

target: T1, IFN-α4a (human, UniProt P05014 24-189); assay: ProteOn, one antigen concentration
T1 construct: also called IFN-αM1
Measured Kd, listed per entry.
Just the number please, in nM, no unit attached.

Observe how each entry below is paired with its result.
IFWM3311 (antibody, V domains shown, VH IFWH591, VL IFWL1009; converted mAb; also called IFWB3046) VH: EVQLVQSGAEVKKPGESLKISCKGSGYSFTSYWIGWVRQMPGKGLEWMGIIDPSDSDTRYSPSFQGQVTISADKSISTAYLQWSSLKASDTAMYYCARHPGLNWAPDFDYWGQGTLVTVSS VL: DIQMTQSPSSLSASVGDRVTITCRASQSIDDFLNWYQQKPGKAPKLLIYFASSLQSGVPSRFSGSGSGTDFTLTISSLQPEDFATYYCQQSHTLPLTFGQGTKVEIK | 0.223
IFWM3334 (antibody, V domains shown, VH IFWH591, VL IFWL1082; converted mAb; also called IFWB3069) VH: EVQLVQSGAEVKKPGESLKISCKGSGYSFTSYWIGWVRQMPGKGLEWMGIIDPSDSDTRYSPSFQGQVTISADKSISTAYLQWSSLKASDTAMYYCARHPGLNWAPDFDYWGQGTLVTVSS VL: DIQMTQSPSSLSASVGDRVTITCRASQSIRNNSLNWYQQKPGKAPKLLIYAASSLQSGVPSRFSGSGSGTDFTLTISSLQPEDFATYYCQQDYNWPLTFGQGTKVEIK | 0.744

Entry IFWM3337 (antibody, V domains shown, VH IFWH591, VL IFWL1087; converted mAb; also called IFWB3072) VH: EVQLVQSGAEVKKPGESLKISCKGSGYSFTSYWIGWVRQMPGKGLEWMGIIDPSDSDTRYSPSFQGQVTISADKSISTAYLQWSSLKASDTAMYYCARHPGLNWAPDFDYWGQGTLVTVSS VL: DIQMTQSPSSLSASVGDRVTITCRASQSISNSNLNWYQQKPGKAPKLLIHWASSLQSGVPSRFSGSGSGTDFTLTISSLQPEDFATYYCQQWYDHPLTFGQGTKVEIK — recorded Kd = 0.091
